The reported measurements were obtained from patent US11174268B2.

biological target: NaV1.6 (Homo sapiens (Human), UniProt Q9UQD0); assay: Sodium Influx Assay (Flux), NaV1.6; type: cell-based; settings: Trex HEK293 cells, ANG2 dye, inactivated state;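 also: Tetracycline-induced cells, compounds applied for one hour at room temperature with modulators holding channels open, IC50 from percent inhibition of sodium influx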
Sequence (Q9UQD0 whole entry, looked up): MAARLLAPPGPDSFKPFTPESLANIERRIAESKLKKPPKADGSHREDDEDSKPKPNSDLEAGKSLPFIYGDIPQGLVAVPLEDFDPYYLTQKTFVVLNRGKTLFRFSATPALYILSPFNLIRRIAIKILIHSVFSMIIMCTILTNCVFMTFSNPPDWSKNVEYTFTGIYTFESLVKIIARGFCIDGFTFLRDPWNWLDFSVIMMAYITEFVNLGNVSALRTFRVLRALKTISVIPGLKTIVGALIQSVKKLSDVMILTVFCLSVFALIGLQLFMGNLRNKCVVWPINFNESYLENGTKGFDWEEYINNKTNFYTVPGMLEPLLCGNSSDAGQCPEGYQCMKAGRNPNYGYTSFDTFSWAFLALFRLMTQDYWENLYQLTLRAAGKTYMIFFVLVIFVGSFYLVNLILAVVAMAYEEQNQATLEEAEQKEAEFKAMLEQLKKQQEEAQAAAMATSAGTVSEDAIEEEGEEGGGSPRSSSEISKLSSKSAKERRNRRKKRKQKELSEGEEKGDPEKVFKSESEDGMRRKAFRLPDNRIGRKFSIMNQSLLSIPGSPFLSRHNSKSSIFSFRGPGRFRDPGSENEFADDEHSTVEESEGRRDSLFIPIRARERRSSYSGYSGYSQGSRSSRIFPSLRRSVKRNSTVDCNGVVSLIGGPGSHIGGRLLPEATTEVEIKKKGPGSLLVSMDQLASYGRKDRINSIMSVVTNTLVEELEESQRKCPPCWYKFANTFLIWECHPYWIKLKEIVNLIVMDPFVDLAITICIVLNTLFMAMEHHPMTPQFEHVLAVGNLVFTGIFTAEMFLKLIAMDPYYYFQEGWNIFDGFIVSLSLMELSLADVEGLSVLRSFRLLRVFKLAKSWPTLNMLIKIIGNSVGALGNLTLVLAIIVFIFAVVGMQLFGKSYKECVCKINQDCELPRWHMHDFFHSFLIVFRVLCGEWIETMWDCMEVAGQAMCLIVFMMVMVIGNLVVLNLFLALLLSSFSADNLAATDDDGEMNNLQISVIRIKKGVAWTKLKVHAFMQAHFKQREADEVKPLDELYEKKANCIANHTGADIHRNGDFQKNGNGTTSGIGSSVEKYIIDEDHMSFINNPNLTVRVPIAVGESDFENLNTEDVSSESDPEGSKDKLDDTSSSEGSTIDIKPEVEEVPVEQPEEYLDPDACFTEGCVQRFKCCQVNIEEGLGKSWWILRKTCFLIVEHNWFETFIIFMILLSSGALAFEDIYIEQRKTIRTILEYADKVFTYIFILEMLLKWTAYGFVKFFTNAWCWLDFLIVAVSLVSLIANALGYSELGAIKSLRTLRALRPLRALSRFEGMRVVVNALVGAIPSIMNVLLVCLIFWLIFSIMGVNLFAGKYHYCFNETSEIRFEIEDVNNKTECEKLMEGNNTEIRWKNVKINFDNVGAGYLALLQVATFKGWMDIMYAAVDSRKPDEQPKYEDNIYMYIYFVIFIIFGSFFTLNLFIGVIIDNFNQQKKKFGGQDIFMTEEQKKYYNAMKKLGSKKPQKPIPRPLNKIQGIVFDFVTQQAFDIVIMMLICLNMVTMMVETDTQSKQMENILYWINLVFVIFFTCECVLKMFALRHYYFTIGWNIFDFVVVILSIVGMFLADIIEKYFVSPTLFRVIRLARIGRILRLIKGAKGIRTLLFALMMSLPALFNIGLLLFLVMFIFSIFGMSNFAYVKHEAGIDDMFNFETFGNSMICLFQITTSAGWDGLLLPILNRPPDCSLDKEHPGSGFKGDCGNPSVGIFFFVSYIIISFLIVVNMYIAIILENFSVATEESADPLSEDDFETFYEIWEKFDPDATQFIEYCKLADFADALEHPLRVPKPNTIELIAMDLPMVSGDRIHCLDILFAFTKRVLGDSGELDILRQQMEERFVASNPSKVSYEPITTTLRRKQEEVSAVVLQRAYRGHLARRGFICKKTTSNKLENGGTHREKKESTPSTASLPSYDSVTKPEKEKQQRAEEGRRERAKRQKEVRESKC
Sequence (Q07699 whole entry partner, looked up): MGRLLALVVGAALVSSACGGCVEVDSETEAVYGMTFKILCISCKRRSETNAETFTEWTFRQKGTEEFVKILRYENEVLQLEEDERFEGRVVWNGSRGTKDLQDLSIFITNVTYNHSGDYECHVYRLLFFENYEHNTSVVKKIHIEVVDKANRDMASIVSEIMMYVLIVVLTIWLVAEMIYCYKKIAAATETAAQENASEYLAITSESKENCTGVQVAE
Counter-ions that a name gives are not always drawn.
For each of the compounds below, state its IC50.
Please answer in the form of a number followed by its unit of measurement.

O=S(=O)(Nc1nccs1)c1ccc(NC2(c3ccccc3)CCC2)c(Cl)c1 [Example 104] = 582 nM
O=S(=O)(Nc1ncns1)c1ccc(N[C@H]2CCc3ccccc32)c(Cl)c1 [Example 36] = 1400 nM
CC[C@@H](Nc1ccc(S(=O)(=O)Nc2ncns2)cc1Cl)c1ccccc1 [Example 31] = 917 nM

Please state, for each entry, its recorded IC50.
1. O=S(=O)(Nc1cscn1)c1c(F)cc(NCc2c(F)cccc2CNC2CCC2)cc1F [Example 177, formate]
2. O=S(=O)(Nc1cccc(F)n1)c1cc(Cl)c(NCc2ccccc2CN2CCC2)cc1F [Example 200]
3. O=S(=O)(Nc1cscn1)c1c(F)cc(NCc2c(F)cccc2CN2CC3(CCC3)C2)cc1F [Example 252, formate]

Result:
1: 46 nM; 2: 496 nM; 3: 36 nM
